- Tested on: NCI-H322M lung
- testDescription: NCI-60 one-dose screen, 48 h (100 = growth as untreated, 0 = no growth, -100 = all killed)
- settings: 10 µM unless noted
The panel holds about 83,000 compounds, 20% with a hit somewhere; the sample as a whole holds those more often.
Reported values of growth for individual entries
reportedEndpoint: growth (%)

>  <structureAsSmiles>
c1ccc2cc(Cn3c(-c4cccc5ccccc45)[n+](Cc4ccc5ccccc5c4)c4c5ccccc5c5ccccc5c43)ccc2c1

>  <testValue>
-25

$$$$
>  <structureAsSmiles>
CCCOC(=O)N[C@H]1CCc2c(Cl)c(OC)c(OC)c(OC)c2-c2ccc(SC)c(=O)cc21

>  <testValue>
31.8

$$$$
>  <structureAsSmiles>
O=[N+]([O-])c1cc(Br)c2cccc3c2c1CC3

>  <testValue>
106

$$$$
>  <structureAsSmiles>
CN1CCN(C(=O)[C@]23CCC(C)(C)C[C@H]2C2=CC[C@@H]4[C@@]5(C)C/C(=C/c6cccnc6)C(=O)C(C)(C)[C@@H]5CC[C@@]4(C)[C@]2(C)CC3)CC1

>  <testValue>
96.3

$$$$
>  <structureAsSmiles>
Cc1nc(N)nc(N[C@@H](C)c2nc3cccc(NCc4ccc(C(=O)NO)cc4)c3c(=O)n2-c2ccccc2)n1

>  <testValue>
80.1

$$$$
>  <structureAsSmiles>
N#Cc1cccc(-c2ccc3c(c2)NC(=O)/C3=C\c2ccc[nH]2)c1

>  <testValue>
45.5

$$$$
>  <structureAsSmiles>
O=C(CCN1CCCC1)Nc1ccc2c(NCCc3ccccc3)c3ccccc3nc2c1

>  <testValue>
-19

$$$$
>  <structureAsSmiles>
COc1cc(-c2csc(NC(=O)c3cc(F)cc(C(F)(F)F)c3)n2)cc(OC)c1OC

>  <testValue>
68

$$$$

----------
- System: HS 578T breast
- testDescription: NCI-60 one-dose screen, 48 h
- settings: 10 µM unless noted
About 83,000 compounds went through this panel and 20% of them were active in at least one assay; those are over-represented in the sample as a whole. Activity calls are given as the source filed them. The calls were made as follows: active = growth percent below 10; inactive = the rest.
Possible outcomes: active, inactive

>  <molecule>
CN(C)CCn1c2ccc(Br)cc2c2nc3ccccc3nc21

>  <category>
inactive

$$$$
>  <molecule>
N#Cc1c(-c2cccc([N+](=O)[O-])c2)nc(SCC(=O)c2ccc(Cl)cc2)[nH]c1=O

>  <category>
inactive

$$$$
>  <molecule>
COc1ccc(C(=O)c2cc(C)c(OC)c(C)c2)c(OC)c1NC(C)=O

>  <category>
inactive

$$$$
>  <molecule>
COc1cc(NC(=O)CSc2nc3ccc(C)cc3c(=O)n2Cc2ccccc2)cc(OC)c1OC

>  <category>
inactive

$$$$
>  <molecule>
COc1ccc(NC(=O)c2cc(NCc3cc(O)ccc3O)ccc2O)cc1

>  <category>
inactive

$$$$
>  <molecule>
c1ccc(-c2cn3c(ccc4ccccc43)n2)cc1

>  <category>
inactive

$$$$
>  <molecule>
NC1[C@H](c2c[nH]c3ccccc23)c2c([nH]c3ccccc23)[C@H]1c1c[nH]c2ccccc12 (stereo partly drawn)

>  <category>
inactive

$$$$
>  <molecule>
N#CC(C#N)=Cc1cc2ccccc2nc1Oc1ccc(C(F)(F)F)cc1

>  <category>
inactive

$$$$
>  <molecule>
CC1(C)c2[nH]c3ccccc3c2C[C@]2(C)[C@H]3C(=O)C=C4[C@@H]5C[C@@](C)(C(N)=O)CC[C@]5(C)CC[C@@]4(C)[C@]3(C)CC[C@@H]12

>  <category>
inactive

$$$$
>  <molecule>
CCOc1cccc(-c2nc(N)nc(Nc3ccccc3SSc3ccccc3Nc3nc(N)nc(-c4cccc(OCC)c4)n3)n2)c1

>  <category>
inactive

$$$$
>  <molecule>
CC1(C)CC[C@]23CC[C@]4(C)[C@H](CC[C@@H]5[C@@]6(C)CCCNC(C)(C)[C@@H]6CC[C@]54C)[C@H]2[C@H]1OC3

>  <category>
active

$$$$
>  <molecule>
C=C1C(=O)O[C@H]2[C@H]1CC/C(CNC(=O)c1cccc3ccccc13)=C\CC[C@@]1(C)O[C@@H]21

>  <category>
inactive

$$$$
>  <molecule>
Cc1ccc(C(=O)/C(=C\c2ccc([N+](=O)[O-])cc2)S(=O)Cc2ccc(F)cc2)cc1 (stereo not drawn)

>  <category>
inactive

$$$$
>  <molecule>
O=C(N/N=C/c1ccc(Oc2ccccc2)cc1)c1cnn2c1NC(c1ccccc1)C2 (stereo not drawn)

>  <category>
inactive

$$$$
>  <molecule>
CCCCCCNC(=O)Oc1ccc(/C(=C(\C)c2ccccc2)c2ccc(OCCCN(C)C)cc2)cc1

>  <category>
inactive

$$$$
>  <molecule>
O=C1CC(=O)OC(c2ccc([N+](=O)[O-])cc2)O1

>  <category>
inactive

$$$$
>  <molecule>
COc1ccc(C(=O)c2nc3ccccc3n2CC(=O)c2ccc(F)cc2)cc1

>  <category>
inactive

$$$$
>  <molecule>
COc1cc(C2C3CC4CCCC[C@H]4N3[C@@]3(C(=O)Nc4cc(Cl)ccc43)C2C(=O)c2nc3ccccc3[nH]2)cc(OC)c1OC (stereo partly drawn)

>  <category>
inactive

$$$$

----------
Reported values of growth for individual entries
- System: SR leukemia
- testDescription: NCI-60 one-dose screen, 48 h (100 = growth as untreated, 0 = no growth, -100 = all killed)
- settings: 10 µM unless noted
Compounds without any hit were thinned out: in the full panel of roughly 83,000, 20% have a hit.

>  <compound>
COc1cc2c(c(OC)c1OC)-c1ccc(NNC(=S)N(Cc3cccc(C[N+](Cc4cccc(CNC56CC7CC(CC(C7)C5)C6)c4)(Cc4cccc(CNC56CC7CC(CC(C7)C5)C6)c4)Cc4cccc(CN(C(=S)NNc5ccc6c(cc5=O)[C@@H](NC(C)=O)CCc5cc(OC)c(OC)c(OC)c5-6)C56CC7CC(CC(C7)C5)C6)c4)c3)C34CC5CC(CC(C5)C3)C4)c(=O)cc1[C@@H](NC(C)=O)CC2 (stereo partly specified)

>  <experimentalTarget>
SR leukemia

>  <unitInfo>
%

>  <growth>
-49.9

$$$$
>  <compound>
CC1(C)c2[nH]c3ccccc3c2C[C@]2(C)[C@H]3C(=O)C=C4[C@@H]5C[C@@](C)(C(N)=O)CC[C@]5(C)CC[C@@]4(C)[C@]3(C)CC[C@@H]12

>  <experimentalTarget>
SR leukemia

>  <unitInfo>
%

>  <growth>
45.8

$$$$
>  <compound>
COC(=O)/C=C1\S/C(=N\NC(=O)c2cc3ccc2/C=C\c2ccc(cc2)/C=C\3)N(c2ccccc2)C1=O

>  <experimentalTarget>
SR leukemia

>  <unitInfo>
%

>  <growth>
-15.6

$$$$
>  <compound>
Cc1nn(-c2ccccc2)c(Oc2c(Cl)cccc2Cl)c1/C=N/N=c1\sc2ccccc2n1C

>  <experimentalTarget>
SR leukemia

>  <unitInfo>
%

>  <growth>
16.6

$$$$
>  <compound>
C[C@H](c1nc2ccc(N)cc2[nH]1)[C@H]1CC[C@H]2[C@@H]3CCC4=CC(=O)CC[C@]4(C)[C@H]3CC[C@]12C

>  <experimentalTarget>
SR leukemia

>  <unitInfo>
%

>  <growth>
44.4

$$$$
>  <compound>
COc1ccc(CC(C)=C(c2ccc(OCCN3CCCCCC3)cc2)c2ccc(OCCN3CCCCCC3)cc2)cc1

>  <experimentalTarget>
SR leukemia

>  <unitInfo>
%

>  <growth>
-32.2

$$$$

----------
- System: HS 578T breast
- testDescription: NCI-60 one-dose screen, 48 h (100 = growth as untreated, 0 = no growth, -100 = all killed)
- settings: 10 µM unless noted
This is part of a sample that, as a whole, favours compounds with a hit. Of some 83,000 tested, about 20% had one in any assay. Calls of active or inactive are those of the source. The calls were made as follows: active = growth percent below 10; inactive = the rest.

>  <structureAsSmiles>
CCN(CC)c1ccc(/C=N/NC(=O)CSc2nc3ccccc3c(=O)n2CCc2ccc(S(N)(=O)=O)cc2)c(O)c1

>  <growth>
46.3% (inactive)

$$$$
>  <structureAsSmiles>
CC1(C)NCCC[C@]2(C)[C@H]3CC[C@@H]4[C@H]5[C@H](C(=O)/C=C/c6ccco6)CC[C@]5(CO)CC[C@@]4(C)[C@]3(C)CC[C@@H]12

>  <growth>
86.8% (inactive)

$$$$
>  <structureAsSmiles>
CCCOc1ccc(/C=N/Nc2cc(C)nc3ccc(Br)cc23)cc1

>  <growth>
106% (inactive)

$$$$
>  <structureAsSmiles>
CCCCCC(=O)Oc1ccc(/C(=C(\C)c2ccccc2)c2ccc(OCCN3CCCCC3)cc2)cc1

>  <growth>
75.6% (inactive)

$$$$

----------
- System: U251 CNS
- testDescription: NCI-60 one-dose screen, 48 h (100 = growth as untreated, 0 = no growth, -100 = all killed)
- settings: 10 µM unless noted
This is part of a sample that, as a whole, favours compounds with a hit. Of some 83,000 tested, about 20% had one in any assay.

>  <molecule>
Cc1cc(Cl)nc(N(CCNc2ccnc3cc(Cl)ccc23)Cc2ccccn2)n1

>  <growth (%)>
26.8

$$$$
>  <molecule>
CCCCCN1C=C/C(=C\C(=O)N(C)c2ccccc2Br)c2ccccc21

>  <growth (%)>
87.7

$$$$
>  <molecule>
N#CC1=C(N)Oc2c(ccc3ccccc23)C1c1ccccc1Cl (stereo not drawn)

>  <growth (%)>
12.4

$$$$
>  <molecule>
Nc1c(C(=O)Nc2cccc3cnccc23)sc2nc3c(cc12)CN(Cc1ccccc1)CC3

>  <growth (%)>
108

$$$$
>  <molecule>
CNC(=O)c1cc(Cn2nc(C)c(NC(=O)Nc3ccc(Cl)c(C(F)(F)F)c3)c2C)ccn1

>  <growth (%)>
86.7

$$$$
>  <molecule>
Oc1cccc(CCc2ccc(Oc3cc(CCc4cccc(O)c4)cc(O)c3O)cc2)c1

>  <growth (%)>
74.5

$$$$
>  <molecule>
Cc1nn(-c2ccccc2)c(Cl)c1/C=C/C(=O)c1ccc(F)cc1

>  <growth (%)>
75.9

$$$$
>  <molecule>
O=S(=O)(NCCNc1nccc(-c2c(-c3cccc(O)c3)nc3occn23)n1)c1ccc(Cl)cc1

>  <growth (%)>
110

$$$$
>  <molecule>
COc1ccc(C(=O)C2C(C#N)C(C#N)C3c4ccccc4C=CN23)cc1 (stereo not drawn)

>  <growth (%)>
93.6

$$$$
>  <molecule>
CC1(C)CC(O)CCCCCCOc2c(CN)cccc2NC(=O)c2nc(cnc2N)-c2ccc(cc2)S1(=O)=O (stereo not drawn)

>  <growth (%)>
-26.6

$$$$
>  <molecule>
COc1cc2oc(-c3cccc(C(=O)Nc4ccc5c(c4)OCO5)c3)cc(=O)c2c(O)c1OC

>  <growth (%)>
55.8

$$$$
>  <molecule>
CCOC(=O)CSc1nc2ccccc2c(=O)n1Cc1ccc(S(N)(=O)=O)cc1

>  <growth (%)>
97.5

$$$$
>  <molecule>
COc1ccc(OC)c(CCn2cncc2-c2c[nH]c3ccccc23)c1

>  <growth (%)>
87.8

$$$$
>  <molecule>
COC(=O)C1=C(C(=O)ON)C2C=CC1(C(Cc1ccccc1)Nc1ccccc1)O2 (stereo not drawn)

>  <growth (%)>
94.6

$$$$
>  <molecule>
CCOC(=O)c1cc(C#N)n2ccc3ccccc3c12

>  <growth (%)>
96.9

$$$$
>  <molecule>
COc1cc2nc(-c3ccc(C(F)(F)F)cc3)cc(OCCCN3CCOCC3)c2cc1OC

>  <growth (%)>
42.6

$$$$
>  <molecule>
Cc1ccc(/C=N/NC(=O)CSc2nc3ccccc3c(=O)n2Cc2ccc(S(N)(=O)=O)cc2)cc1

>  <growth (%)>
93.9

$$$$
>  <molecule>
C=C(C)[C@@H]1CC[C@]2(C(=O)N[C@@H](Cc3ccccc3)C(=O)OC)CC[C@]3(C)[C@H](CC[C@@H]4[C@@]5(C)CCC(=O)C(C)(C)[C@@H]5CC[C@]43C)[C@@H]12

>  <growth (%)>
85.2

$$$$
>  <molecule>
Cc1ccc(S(=O)(=O)NNC(=O)/C(=C\c2ccc(Cl)cc2)c2nc3ccccc3s2)cc1

>  <growth (%)>
97.5

$$$$
>  <molecule>
Nc1nc(Nc2ccccc2SSc2ccccc2Nc2nc(N)nc(-c3cccs3)n2)nc(-c2ccsc2)n1

>  <growth (%)>
53.1

$$$$
>  <molecule>
CCCCCC(=O)Oc1ccc(/C(=C(\C)c2ccccc2)c2ccc(OCCN3CCCCC3)cc2)cc1

>  <growth (%)>
71.7

$$$$
>  <molecule>
CCOC(=O)c1cc(C(=O)c2ccc(OC)c(OC)c2)n2ccc(/C=C/c3cc[n+](CC(=O)c4ccc(OC)c(OC)c4)cc3)cc12

>  <growth (%)>
95.5

$$$$
>  <molecule>
COc1cc(C2=C(c3cn(C)c4ccccc34)COC2=O)cc(OC)c1OC

>  <growth (%)>
13.8

$$$$
>  <molecule>
C=C1C(=O)O[C@H]2[C@H]1CC/C(CNC(=O)/C=C/c1cccc(OC)c1)=C\CC[C@@]1(C)O[C@@H]21

>  <growth (%)>
47.3

$$$$
>  <molecule>
c1ccc2c(-c3nccs3)c[nH]c2c1

>  <growth (%)>
103

$$$$
>  <molecule>
O=C(CCN1CCCC1)Nc1ccc2c(NCCc3ccccc3)c3ccccc3nc2c1

>  <growth (%)>
-24

$$$$
>  <molecule>
O=C(C[n+]1cccc2ccccc21)c1ccc(O)c(O)c1

>  <growth (%)>
91.1

$$$$
>  <molecule>
N#CC1C(C#N)C2c3ccccc3C=CN2C1C(=O)c1ccc(Br)cc1 (stereo not drawn)

>  <growth (%)>
100

$$$$
>  <molecule>
COc1cc(C2C3=C(COC3=O)N(CCO)c3cc4c(cc32)OCO4)cc(OC)c1OC (stereo not drawn)

>  <growth (%)>
2.92

$$$$
>  <molecule>
O=C(/C=C/c1c(-c2ccc(Cl)cc2)nn(-c2ccccc2)c1C(F)(F)F)c1ccc(Cl)cc1

>  <growth (%)>
86.3

$$$$
>  <molecule>
C=C1C(=O)O[C@H]2[C@H]1CC/C(COC(=O)NCCc1c[nH]c3ccc(OC)cc13)=C\CC[C@@]1(C)O[C@@H]21

>  <growth (%)>
35.5

$$$$
>  <molecule>
CNC(=O)c1cccc(Cn2nc(C)c(NC(=O)c3ccc(COc4ccc(C(F)(F)F)cc4C)cc3)c2C)c1

>  <growth (%)>
44.4

$$$$
>  <molecule>
COc1ccc(C(=O)NNc2nc(Cl)nc(N3CCN(C(c4ccccc4)c4ccccc4)CC3)n2)cc1

>  <growth (%)>
71.4

$$$$
>  <molecule>
COc1ccc2c(c1)C(=O)CC(c1ccccc1OC)O2 (stereo not drawn)

>  <growth (%)>
98.4

$$$$
>  <molecule>
O=C(Cc1ccc(/C=C/C(=O)c2nccs2)cc1)Nc1ccccc1

>  <growth (%)>
47.7

$$$$
>  <molecule>
COc1ccc(C(=O)/C=C/c2cc3ccccc3n3nnnc23)cc1

>  <growth (%)>
101

$$$$
>  <molecule>
COc1cccc(-c2cc(C(=O)Nc3ccc(/C=C/c4ccc(OC5CCN(C)CC5)cc4)cc3)ccc2OC)c1

>  <growth (%)>
-92.6

$$$$
>  <molecule>
CCNc1nc2cc(Nc3ccnc4cc(Cl)ccc34)ccc2o1

>  <growth (%)>
74.4

$$$$
